target: Nav 1.7 (Homo sapiens (Human), UniProt Q15858); assay: in-vitro Nav 1.7 PX (IC50); format: cell-based
Sequence (Q15858 whole entry): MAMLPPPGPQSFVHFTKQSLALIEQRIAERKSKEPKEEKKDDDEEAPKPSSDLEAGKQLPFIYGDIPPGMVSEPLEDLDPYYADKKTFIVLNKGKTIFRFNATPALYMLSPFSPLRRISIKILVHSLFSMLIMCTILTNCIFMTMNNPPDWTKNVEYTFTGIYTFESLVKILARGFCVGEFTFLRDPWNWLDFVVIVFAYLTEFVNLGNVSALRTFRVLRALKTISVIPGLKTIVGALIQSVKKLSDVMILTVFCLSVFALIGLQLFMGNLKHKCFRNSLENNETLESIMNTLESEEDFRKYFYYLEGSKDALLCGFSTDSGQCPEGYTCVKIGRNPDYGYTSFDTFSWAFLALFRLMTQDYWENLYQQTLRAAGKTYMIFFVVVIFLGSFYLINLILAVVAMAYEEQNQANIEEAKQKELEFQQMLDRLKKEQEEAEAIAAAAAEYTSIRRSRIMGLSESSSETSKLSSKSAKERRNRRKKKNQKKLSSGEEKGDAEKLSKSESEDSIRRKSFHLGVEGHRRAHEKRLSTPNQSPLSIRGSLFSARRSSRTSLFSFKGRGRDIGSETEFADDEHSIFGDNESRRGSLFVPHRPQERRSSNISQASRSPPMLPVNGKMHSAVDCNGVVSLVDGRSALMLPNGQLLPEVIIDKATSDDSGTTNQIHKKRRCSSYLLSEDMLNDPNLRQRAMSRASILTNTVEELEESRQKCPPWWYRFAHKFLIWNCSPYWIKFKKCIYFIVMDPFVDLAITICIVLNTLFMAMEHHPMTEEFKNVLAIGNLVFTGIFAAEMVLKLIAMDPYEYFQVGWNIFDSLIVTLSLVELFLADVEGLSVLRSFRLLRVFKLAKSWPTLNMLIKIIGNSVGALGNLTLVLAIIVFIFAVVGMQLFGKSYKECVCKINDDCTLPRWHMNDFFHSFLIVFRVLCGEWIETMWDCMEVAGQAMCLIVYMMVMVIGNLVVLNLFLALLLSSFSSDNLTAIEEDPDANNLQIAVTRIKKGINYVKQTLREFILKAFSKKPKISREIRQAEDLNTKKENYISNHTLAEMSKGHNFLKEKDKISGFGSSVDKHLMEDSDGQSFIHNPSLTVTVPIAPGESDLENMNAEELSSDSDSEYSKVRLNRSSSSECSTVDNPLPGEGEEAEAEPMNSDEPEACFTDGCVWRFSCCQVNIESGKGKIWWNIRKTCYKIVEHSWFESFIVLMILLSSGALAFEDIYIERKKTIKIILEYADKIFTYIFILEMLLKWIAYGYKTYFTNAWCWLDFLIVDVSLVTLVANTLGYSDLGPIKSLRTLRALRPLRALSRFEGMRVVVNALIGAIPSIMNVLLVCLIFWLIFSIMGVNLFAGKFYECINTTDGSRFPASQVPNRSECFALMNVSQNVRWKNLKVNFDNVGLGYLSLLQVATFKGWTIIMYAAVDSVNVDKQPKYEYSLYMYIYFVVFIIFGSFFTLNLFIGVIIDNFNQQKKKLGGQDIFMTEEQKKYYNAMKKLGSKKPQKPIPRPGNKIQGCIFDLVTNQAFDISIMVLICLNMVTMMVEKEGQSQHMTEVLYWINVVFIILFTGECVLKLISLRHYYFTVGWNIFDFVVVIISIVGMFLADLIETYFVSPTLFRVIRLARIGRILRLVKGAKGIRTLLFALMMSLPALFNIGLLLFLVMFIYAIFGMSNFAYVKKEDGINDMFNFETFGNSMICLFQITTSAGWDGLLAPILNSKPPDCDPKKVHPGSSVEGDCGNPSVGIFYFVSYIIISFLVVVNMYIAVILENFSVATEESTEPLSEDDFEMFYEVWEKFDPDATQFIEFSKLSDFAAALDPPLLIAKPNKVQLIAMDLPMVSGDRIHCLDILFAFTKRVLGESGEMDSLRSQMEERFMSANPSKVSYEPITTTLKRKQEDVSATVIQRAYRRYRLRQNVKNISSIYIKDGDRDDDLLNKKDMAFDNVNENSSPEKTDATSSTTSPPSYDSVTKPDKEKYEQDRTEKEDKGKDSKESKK
IC50 under 3000 nM gets label 1, anything at or over 3000 nM gets label 0.

Example entries begin here.
{"molecule": "COc1nc(Oc2ccc(F)cc2)c(Cl)cc1-n1c(=O)ccc2cc(S(=O)(=O)Nc3ccon3)ccc21 [Example 1220]", "study-system": "Nav 1.7 (Homo sapiens (Human), UniProt Q15858)", "group": "label 0"}
{"molecule": "COc1cc(-c2cnc(OC)c(Cl)c2)c(F)cc1-n1c(=O)ccc2cc(S(=O)(=O)Nc3ncc(F)cn3)ccc21 (atropisomer, axis not shown; (P)) [Example 1156]", "study-system": "Nav 1.7 (Homo sapiens (Human), UniProt Q15858)", "group": "label 1"}
{"molecule": "COc1nc(Oc2ccc(F)cc2F)c(Cl)cc1-n1c(=O)ccc2cc(S(=O)(=O)Nc3ccon3)ccc21 [Example 1221]", "study-system": "Nav 1.7 (Homo sapiens (Human), UniProt Q15858)", "group": "label 1"}
{"molecule": "COc1cc(-c2cc(F)cc(Cl)c2)c(F)cc1-n1c(=O)ccc2cc(S(=O)(=O)Nc3ccon3)ccc21 (atropisomer, axis not shown; (P)) [Example 477]", "study-system": "Nav 1.7 (Homo sapiens (Human), UniProt Q15858)", "group": "label 1"}
{"molecule": "O=c1ccc2cc(S(=O)(=O)Nc3ccon3)ccc2n1-c1cc(F)c(-c2cc(F)cc(F)c2)cc1OC1CNC1 [Example 670, 2,2,2-trifluoroacetate]", "study-system": "Nav 1.7 (Homo sapiens (Human), UniProt Q15858)", "group": "label 1"}

Turning now to a further molecule:
Field: below-cutoff. Rule: recorded IC50 strictly less than 3000 nM. Subject: COc1cc(-c2ccc(Cl)c(C)c2)c(F)cc1-n1c(=O)c(OC)cc2cc(S(=O)(=O)Nc3ccon3)ccc21 (atropisomer, axis not shown; (M)) [Example 413]
label 0

Source of measurements: patent US9212182B2
